Where do these numbers come from? They come from patent US9474758B2.

target: Human TRPA1 expressing CHO cells (Homo sapiens, UniProt O75762); construct: expressed in transfected cells; host or cells: CHO cells (G-418 selection); experiment: 45Calcium uptake assay, inhibition of AITC induced calcium uptake (human); assay type: cell-based; details: human TRPA1 CHO cells, AITC 30 μM, compound 10.0 μM; read-out: Percentage inhibition at 10.0 μM
Sequence (O75762 whole entry): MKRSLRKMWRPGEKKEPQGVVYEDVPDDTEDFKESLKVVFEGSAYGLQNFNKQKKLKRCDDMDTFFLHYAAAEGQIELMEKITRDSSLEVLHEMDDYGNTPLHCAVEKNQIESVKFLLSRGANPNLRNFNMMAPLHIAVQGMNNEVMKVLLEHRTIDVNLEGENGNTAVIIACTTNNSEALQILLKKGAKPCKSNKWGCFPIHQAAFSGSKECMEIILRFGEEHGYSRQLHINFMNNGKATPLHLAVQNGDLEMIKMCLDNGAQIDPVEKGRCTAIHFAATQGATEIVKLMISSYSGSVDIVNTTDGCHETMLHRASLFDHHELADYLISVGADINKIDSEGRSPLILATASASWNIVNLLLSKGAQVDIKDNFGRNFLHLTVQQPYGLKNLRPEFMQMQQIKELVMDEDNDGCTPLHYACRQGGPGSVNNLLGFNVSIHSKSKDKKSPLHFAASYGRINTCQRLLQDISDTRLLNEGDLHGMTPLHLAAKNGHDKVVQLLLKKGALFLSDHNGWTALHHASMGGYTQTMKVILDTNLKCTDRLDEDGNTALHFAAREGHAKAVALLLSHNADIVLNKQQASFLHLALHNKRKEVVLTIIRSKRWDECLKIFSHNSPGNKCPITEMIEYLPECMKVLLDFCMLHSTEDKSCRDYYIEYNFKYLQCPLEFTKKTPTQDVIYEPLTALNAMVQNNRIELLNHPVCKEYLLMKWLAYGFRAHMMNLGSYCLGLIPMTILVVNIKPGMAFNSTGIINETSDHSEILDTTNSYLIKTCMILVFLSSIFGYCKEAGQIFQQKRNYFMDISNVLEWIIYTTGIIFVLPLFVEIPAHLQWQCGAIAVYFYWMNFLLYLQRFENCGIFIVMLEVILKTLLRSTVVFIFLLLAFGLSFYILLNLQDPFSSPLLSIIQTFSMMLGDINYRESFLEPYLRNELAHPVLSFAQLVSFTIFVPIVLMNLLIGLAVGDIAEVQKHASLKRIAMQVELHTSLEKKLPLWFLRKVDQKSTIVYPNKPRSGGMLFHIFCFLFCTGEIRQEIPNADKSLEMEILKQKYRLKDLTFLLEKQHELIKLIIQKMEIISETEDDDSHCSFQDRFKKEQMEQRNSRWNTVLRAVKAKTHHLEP
READOUT_KIND: inhibition at 10 µM (%)
The answer is to be given in %; state only the numeric part.

Entry Cn1c(=O)c2c(CC(=O)Nc3nc(-c4cccc(OC(F)(F)F)c4)cs3)csc2n(C)c1=O [Example 3] has what inhibition at 10 µM?
98.5

Field request: inhibition at 10 µM | item: Cn1c(=O)c2c(CC(=O)Nc3nc(-c4ccc(F)c(C(F)(F)F)c4F)cs3)csc2n(C)c1=O [Example 13]
98.1

# inhibition at 10 µM lookup, item Cn1c(=O)c2c(CC(=O)Nc3nc(-c4ccc(Cl)cc4)cs3)scc2n(C)c1=O [Example 45]
98.9

What does the data say about its inhibition at 10 µM? Entry: Cc1sc2c(c1CC(=O)Nc1nc(-c3ccc(Cl)cc3)cs1)c(=O)n(C)c(=O)n2C [Example 19]
98.2

I would be grateful if you could share the reported inhibition at 10 µM for Cn1c(=O)c2c(CC(=O)Nc3nc(-c4ccc(F)c(C(F)(F)F)c4)cs3)csc2n(C)c1=O [Example 6] .
100

For the molecule shown here, Cn1c(=O)c2c(CC(=O)Nc3nc(-c4ccc(F)c(C(F)(F)F)c4F)cs3)scc2n(C)c1=O [Example 57] , give the reported inhibition at 10 µM.
91

Recorded inhibition at 10 µM of Cc1sc2c(c1CC(=O)Nc1nc(-c3cccc(OC(F)(F)F)c3)c[nH]1)c(=O)n(C)c(=O)n2C [Example 28] , please.
46.8

Record request: inhibition at 10 µM value, item Cc1sc2c(c1CC(=O)Nc1nc(-c3ccc(Cl)c(Cl)c3)cs1)c(=O)n(C)c(=O)n2C [Example 20]
99.6

* * *

biological target: Rat TRPA1 expressing CHO cells (Rattus norvegicus, UniProt Q6RI86); assay: 45Calcium uptake assay, inhibition of AITC induced calcium uptake (rat); settings: rat TRPA1 CHO cells, AITC 10 μM; read-out: Rat IC50 value (Range)
Sequence (Q6RI86 whole entry): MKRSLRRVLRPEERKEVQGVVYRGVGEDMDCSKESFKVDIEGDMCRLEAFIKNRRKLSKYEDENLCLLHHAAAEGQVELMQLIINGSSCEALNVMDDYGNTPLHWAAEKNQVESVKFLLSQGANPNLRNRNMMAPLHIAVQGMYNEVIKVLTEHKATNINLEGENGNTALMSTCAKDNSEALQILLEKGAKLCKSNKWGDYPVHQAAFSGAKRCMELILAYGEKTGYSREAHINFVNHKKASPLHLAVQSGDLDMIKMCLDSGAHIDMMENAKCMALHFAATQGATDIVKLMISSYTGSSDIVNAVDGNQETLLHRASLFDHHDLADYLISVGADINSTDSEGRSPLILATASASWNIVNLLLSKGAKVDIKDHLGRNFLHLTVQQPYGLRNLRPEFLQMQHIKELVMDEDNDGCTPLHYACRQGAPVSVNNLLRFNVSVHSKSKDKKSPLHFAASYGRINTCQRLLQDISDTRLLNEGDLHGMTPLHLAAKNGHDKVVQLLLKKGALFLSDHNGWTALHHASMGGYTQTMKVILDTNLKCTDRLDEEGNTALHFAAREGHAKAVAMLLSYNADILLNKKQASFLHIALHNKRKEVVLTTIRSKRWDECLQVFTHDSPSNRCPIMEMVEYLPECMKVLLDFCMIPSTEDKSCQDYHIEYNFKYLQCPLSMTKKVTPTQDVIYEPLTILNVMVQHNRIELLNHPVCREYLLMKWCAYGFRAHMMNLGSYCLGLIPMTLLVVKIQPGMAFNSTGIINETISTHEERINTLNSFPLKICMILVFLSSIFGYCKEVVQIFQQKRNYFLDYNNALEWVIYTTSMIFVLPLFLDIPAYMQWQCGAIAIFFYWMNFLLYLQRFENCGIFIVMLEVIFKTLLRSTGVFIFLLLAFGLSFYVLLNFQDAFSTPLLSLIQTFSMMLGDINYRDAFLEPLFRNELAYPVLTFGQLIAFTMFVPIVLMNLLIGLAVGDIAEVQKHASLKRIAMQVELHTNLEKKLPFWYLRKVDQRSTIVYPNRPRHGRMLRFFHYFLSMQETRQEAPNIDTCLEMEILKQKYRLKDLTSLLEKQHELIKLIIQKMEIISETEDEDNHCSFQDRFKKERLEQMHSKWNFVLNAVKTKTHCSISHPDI
READOUT_KIND: IC50

Which IC50 is reported with Rat TRPA1 expressing CHO cells (Rattus norvegicus, UniProt Q6RI86) for this entry: Cn1c(=O)c2c(CC(=O)Nc3nc(-c4cc(F)cc(C(F)(F)F)c4)cs3)csc2n(C)c1=O [Example 8] ?
50 to 500 nM

Request: IC50, test system Rat TRPA1 expressing CHO cells (Rattus norvegicus, UniProt Q6RI86), entry Cn1c(=O)c2c(CC(=O)Nc3nc(-c4ccc(F)c(C(F)(F)F)c4F)cs3)scc2n(C)c1=O [Example 57]
< 50 nM

Form field - read-out: IC50; system: Rat TRPA1 expressing CHO cells (Rattus norvegicus, UniProt Q6RI86); submitted item: Cc1sc2c(c1CC(=O)Nc1nc(-c3ccc(C(F)(F)F)c(F)c3)cs1)c(=O)n(C)c(=O)n2C [Example 24]
50 to 500 nM

For the record Cn1c(=O)c2c(CC(=O)Nc3nc(-c4ccc(F)c(C(F)(F)F)c4)cs3)scc2n(C)c1=O [Example 49] , what value of IC50 is listed for Rat TRPA1 expressing CHO cells (Rattus norvegicus, UniProt Q6RI86)?
50 to 500 nM

# value lookup — system Rat TRPA1 expressing CHO cells (Rattus norvegicus, UniProt Q6RI86), readout IC50, item Cn1c(=O)c2c(CC(=O)Nc3nc(-c4ccc(F)c(OC(F)(F)F)c4)cs3)csc2n(C)c1=O [Example 10]
50 to 500 nM

For the record Cn1c(=O)c2c(CC(=O)Nc3nc(-c4ccc(F)c(C(F)(F)F)c4F)cs3)csc2n(C)c1=O [Example 13] , what value of IC50 is listed for Rat TRPA1 expressing CHO cells (Rattus norvegicus, UniProt Q6RI86)?
< 50 nM

* * *

target: Human TRPA1 expressing CHO cells (Homo sapiens, UniProt O75762); construct: expressed in transfected cells; host or cells: CHO cells (G-418 selection); test: 45Calcium uptake assay, inhibition of AITC induced calcium uptake (human); format: cell-based; conditions: human TRPA1 CHO cells, AITC 30 μM, compound 1.0 μM; read-out: Percentage inhibition at 1.0 μM
Could you please report measured inhibition at 1 µM for the items listed next?
Only the number, expressed in %, is required.

Can you look up the measured inhibition at 1 µM of Cn1c(=O)c2c(CC(=O)Nc3nc(-c4ccc(Cl)cc4)cs3)scc2n(C)c1=O [Example 45] for me?
94

Query: inhibition at 1 µM; subject: Cn1c(=O)c2c(CC(=O)Nc3ccn(-c4ccc(Br)cc4)n3)csc2n(C)c1=O [Example 40]
99.9

Item under review: Cc1sc2c(c1CC(=O)Nc1nc(-c3ccc(Cl)cc3)cs1)c(=O)n(C)c(=O)n2C [Example 19] . Reported inhibition at 1 µM?
95

# query: inhibition at 1 µM of entry Cc1sc2c(c1CC(=O)Nc1nc(-c3cccc(F)c3F)cs1)c(=O)n(C)c(=O)n2C [Example 21]
95.4

# inhibition at 1 µM lookup, item Cn1c(=O)c2c(CC(=O)Nc3nc(-c4ccc(C(F)(F)F)c(F)c4)cs3)scc2n(C)c1=O [Example 50]
99.5

I'd like to know its inhibition at 1 µM. The compound in question is Cn1c(=O)c2c(CC(=O)Nc3nc(-c4ccc(Cl)c(Cl)c4)cs3)scc2n(C)c1=O [Example 53]
97.8

Returns the measured inhibition at 1 µM for the input compound. Input: CCc1sc2c(c1CC(=O)Nc1nc(-c3ccc(C(F)(F)F)c(F)c3)cs1)c(=O)n(C)c(=O)n2C [Example 31]
98

Quick one: inhibition at 1 µM for Cn1c(=O)c2c(CC(=O)Nc3nc(-c4ccc(OC(F)(F)F)c(F)c4)cs3)csc2n(C)c1=O [Example 11] ?
98.6

Entry under review: Cn1c(=O)c2c(CC(=O)Nc3nc(-c4cccc(OC(F)(F)F)c4)cs3)csc2n(C)c1=O [Example 3] . Reported inhibition at 1 µM?
89

* * *

target: Human TRPA1 expressing CHO cells (Homo sapiens, UniProt O75762); construct: expressed in transfected cells; host or cells: CHO cells (G-418 selection); assay: 45Calcium uptake assay, inhibition of AITC induced calcium uptake (human); type: cell-based; settings: human TRPA1 CHO cells, AITC 30 μM, compound 10.0 μM; read-out: Percentage inhibition at 10.0 μM
Please provide measured inhibition at 10 µM for the entries that follow.
Provide only the numeric value, understood in %.

// inhibition at 10 µM lookup, key: CCc1sc2c(c1CC(=O)Nc1nc(-c3ccc(F)c(C(F)(F)F)c3F)cs1)c(=O)n(C)c(=O)n2C
99.3

I would be grateful if you could share the reported inhibition at 10 µM for Cn1c(=O)c2c(CC(=O)Nc3cc(-c4ccc(Br)cc4)on3)csc2n(C)c1=O .
78.6

So what does the record say about inhibition at 10 µM for Cn1c(=O)c2c(CC(=O)Nc3nc(-c4cccc(C(F)(F)F)c4)cs3)scc2n(C)c1=O ?
98.5

Reported inhibition at 10 µM for Cn1c(=O)c2c(CC(=O)Nc3nc(-c4cc(F)c(C(F)(F)F)c(F)c4)cs3)csc2n(C)c1=O : what is it?
99.1

Using the record for Cc1sc2c(c1CC(=O)Nc1nc(-c3ccc(F)cc3F)cs1)c(=O)n(C)c(=O)n2C , report its inhibition at 10 µM.
100

So what does the record say about inhibition at 10 µM for Cc1sc2c(c1CC(=O)Nc1nc(-c3cccc(OC(F)(F)F)c3)cs1)c(=O)n(C)c(=O)n2C ?
100

Would you mind telling me what inhibition at 10 µM value was observed for CCCc1sc2c(c1CC(=O)Nc1nc(-c3cc(F)c(OC(F)F)c(F)c3)cs1)c(=O)n(C)c(=O)n2C ?
99.8

Item under review: CCc1sc2c(c1CC(=O)Nc1nc(-c3cc(F)c(OCC(F)(F)F)c(F)c3)cs1)c(=O)n(C)c(=O)n2C . Reported inhibition at 10 µM?
98.4

Record request: inhibition at 10 µM value, item Cc1sc2c(c1CC(=O)Nc1nc(-c3ccc(OC(F)(F)F)c(F)c3)cs1)c(=O)n(C)c(=O)n2C
100

// lookup inhibition at 10 µM for Cn1c(=O)c2c(CC(=O)Nc3nc(-c4ccc(Cl)c(Cl)c4)cs3)scc2n(C)c1=O
99.3

Give its inhibition at 10 µM value. Item: Cn1c(=O)c2c(CC(=O)Nc3nc(-c4ccc(OC(F)(F)F)c(F)c4)cs3)csc2n(C)c1=O
97.1

I'd like to know its inhibition at 10 µM. The compound in question is Cc1sc2c(c1CC(=O)Nc1nc(-c3cccc(F)c3F)cs1)c(=O)n(C)c(=O)n2C
100

Need inhibition at 10 µM of Cc1sc2c(c1CC(=O)Nc1nc(-c3ccc(F)c(OC(F)(F)F)c3)cs1)c(=O)n(C)c(=O)n2C , thanks.
98.8

Please report the recorded inhibition at 10 µM for CCc1sc2c(c1CC(=O)Nc1nc(-c3ccc(C(F)(F)F)c(F)c3)cs1)c(=O)n(C)c(=O)n2C .
98.5

I would be grateful if you could share the reported inhibition at 10 µM for Cn1c(=O)c2c(CC(=O)Nc3nc(-c4ccc(C(F)(F)F)cc4)cs3)scc2n(C)c1=O .
98.8

State the recorded inhibition at 10 µM for this entry: Cc1sc2c(c1CC(=O)Nc1nc(-c3ccc(F)c(C(F)(F)F)c3F)cs1)c(=O)n(C)c(=O)n2C
99.1

Which inhibition at 10 µM is reported for this compound? Cn1c(=O)c2c(CC(=O)Nc3nc(-c4cc(F)c(C(F)(F)F)c(F)c4)cs3)scc2n(C)c1=O
95.8

Can you share its inhibition at 10 µM? I mean this compound: Cn1c(=O)c2c(CC(=O)Nc3nc(-c4cc(F)cc(C(F)(F)F)c4)cs3)scc2n(C)c1=O
99.7

Report inhibition at 10 µM for Cn1c(=O)c2c(CC(=O)Nc3nc(-c4cccc(OC(F)(F)F)c4)cs3)scc2n(C)c1=O please.
98.9

Need inhibition at 10 µM, item CC(C)Cc1ccc(-c2csc(NC(=O)Cc3scc4c3c(=O)n(C)c(=O)n4C)n2)cc1
93.2

Recorded inhibition at 10 µM of CC(C)c1sc2c(c1CC(=O)Nc1nc(-c3ccc(C(F)(F)F)c(F)c3)cs1)c(=O)n(C)c(=O)n2C , please.
97.7

I would be grateful if you could share the reported inhibition at 10 µM for Cn1c(=O)c2c(CC(=O)Nc3nc(-c4cc(F)c(OCC(F)(F)F)c(F)c4)cs3)scc2n(C)c1=O .
97.4

Returns the measured inhibition at 10 µM for the input compound. Input: Cn1c(=O)c2c(CC(=O)Nc3nc(-c4cc(F)c(OC(F)F)c(F)c4)cs3)scc2n(C)c1=O
91.4

Given the compound Cn1c(=O)c2c(CC(=O)Nc3nc(-c4ccc(C(F)(F)F)c(F)c4)cs3)csc2n(C)c1=O , what is its reported inhibition at 10 µM?
99.9

Need inhibition at 10 µM, item CCCc1sc2c(c1CC(=O)Nc1nc(-c3ccc(C(F)(F)F)c(F)c3)cs1)c(=O)n(C)c(=O)n2C
100
